Data origin: patent US9630969B2

- assayed-system: human IDO (Homo sapiens)
- Construct: made in house; host or cells: Escherichia coli
- Sequence (P14902 whole entry): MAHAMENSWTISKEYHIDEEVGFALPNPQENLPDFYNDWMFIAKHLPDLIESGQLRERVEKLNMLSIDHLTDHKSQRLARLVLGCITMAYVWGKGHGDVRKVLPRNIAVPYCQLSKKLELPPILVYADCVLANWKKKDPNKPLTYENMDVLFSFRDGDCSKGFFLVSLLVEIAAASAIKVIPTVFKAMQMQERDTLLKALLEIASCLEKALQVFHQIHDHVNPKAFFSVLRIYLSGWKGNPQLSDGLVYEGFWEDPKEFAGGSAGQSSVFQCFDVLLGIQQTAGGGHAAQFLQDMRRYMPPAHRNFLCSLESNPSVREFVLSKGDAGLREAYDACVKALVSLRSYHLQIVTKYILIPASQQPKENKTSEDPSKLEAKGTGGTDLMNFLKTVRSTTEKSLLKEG
- assay-overview: biochemical
- assay-context: 150 mM substrate L-tryptophan, pH 6.5, 37° C. 30 minutes, read at 490 nm; read-out: IC50(in vitro)
- Experimental: The reaction was conducted under 37° C. for 30 minutes and was terminated by 30% (w/v) trichloroacetic acid (200 μl). The reaction system was heated under 65° C. for 15 minutes to convert the formyl kynurenine into kynurenine, and then rotated under 12000 rpm for 10 minutes. […] The yellow color caused by the reaction of the mixture and kynurenine, can be observed at 490 nm by using Microplate Reader. The results were calculated with IC50 calculation software (see Table 1).
pIC50: −log10 of the molar value.
property: pIC50

# molecule, property, endpoint-result
data = [
    ("CN(C)c1ccc2nc3n(c(=O)c2c1)-c1ccc(F)cc1C3=O [Compound 7]", "pIC50", 4.99),
    ("O=C1c2cc(F)ccc2-n2c1nc1ccc(N3CCNCC3)cc1c2=O [Compound 5]", "pIC50", 5.92),
    ("CN1CCN(c2ccc3nc4n(c(=O)c3c2)-c2ccc(F)cc2C4=O)CC1 [Compound 6]", "pIC50", 5.66),
    ("CN1CCN(c2ccc3nc4n(c(=O)c3c2)-c2ccccc2C4=O)CC1 [Compound 11]", "pIC50", 5.10),
    ("O=C1c2cc(F)ccc2-n2c1nc1ccc(N3CCCCC3)cc1c2=O [Compound 9]", "pIC50", 5.74),
]
